# System: Escherichia coli TOP10;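 also: peptides expressed intracellularly from a pBAD plasmid library in pooled LB shake-flask culture, induced with 0.3% L-arabinose, DNA abundance read by NGS, three biological replicates, DESeq2 with apeglm shrinkage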
# run-description: shrunken log2 fold change of peptide-encoding DNA abundance (4.5 h post-induction vs induction); higher = less antimicrobial activity (less host growth inhibition)
# experimental-parameters: time post-induction: 4.5 h; library: site-saturation at positions 5, 18, 19, 20
Attribute: shrunken log2 fold change

{"columns": ["residues", "shrunken log2 fold change"],
 "data": [
  ["RRIRCRPPRLPRPRPRPQGDPRP", 0.0138],
  ["RRIRQRPPRLPRPRPRPWRAPRP", 0.0749],
  ["RRIRWRPPRLPRPRPRPAGMPRP", 0.321],
  ["RRIRARPPRLPRPRPRPAQEPRP", 0.582],
  ["RRIRERPPRLPRPRPRPTHQPRP", -0.135],
  ["RRIRQRPPRLPRPRPRPCSQPRP", -0.018],
  ["RRIRFRPPRLPRPRPRPYDKPRP", -0.374],
  ["RRIRGRPPRLPRPRPRPLWPPRP", 0.836]
]}

Value source: the supplement of paper PMC9112550
